Origin of measurements: ChEMBL document CHEMBL6092218

experiment: Metabolic stability in human liver microsomes assessed as apparent intrinsic clearance at 1 uM measured upto 60 mins in presence of NADPH by LC-MS/MS analysis; type: ADME, Microsome; conditions: read-out: CLH
experimental endpoint: log10(microsomal CLint at 1 µM) (log10 of the value in µL/min/mg)
Field: value | Transform: log10 | Quantity: microsomal CLint at 1 µM | Unit: µL/min/mg

Entry Cc1cn(C)nc1Nc1cc2cc(-c3cncn3C)nc(N)c2cn1 ; log10(microsomal CLint at 1 µM) = 0.91

Entry CCC(N)(CC)c1ccnc(Nc2cc3cc(-c4cnnn4C)nc(N)c3cn2)c1 ; log10(microsomal CLint at 1 µM) = 1.61

Entry CCC(N)(CC)c1ccnc(Nc2cc3cc(N4CCOC4=O)nc(N)c3cn2)c1 ; log10(microsomal CLint at 1 µM) = 1.29

Entry CCn1nc(Nc2cc3cc(-c4cnnn4C)nc(N)c3cn2)c2c1[C@@H]1CC[C@H]2C(=O)N1C1CCC1 ; log10(microsomal CLint at 1 µM) = 1.89

Entry Cc1cn(C)nc1Nc1cc2cc(C3CCc4nccn43)nc(N)c2cn1 (centres undefined) ; log10(microsomal CLint at 1 µM) = 1.46

Entry Cc1cn(C)nc1Nc1cc2cc(-c3cn[nH]c3C)nc(N)c2cn1 ; log10(microsomal CLint at 1 µM) = 1.50

Entry Cn1nncc1-c1cc2cc(Nc3nn(C)c4c3[C@@H]3CC[C@H]4N(C4CCC4)C3)ncc2c(N)n1 ; log10(microsomal CLint at 1 µM) = 2.30

Entry Cc1cn(C)nc1Nc1cc2cc(-c3sncc3C)nc(N)c2cn1 ; log10(microsomal CLint at 1 µM) = 2.28

Entry Cc1cn(C)nc1Nc1cc2cc(-c3cnccn3)nc(N)c2cn1 ; log10(microsomal CLint at 1 µM) = 1.33

Entry Cc1cn(C)nc1Nc1cc2cc(-c3cnnn3C)nc(N)c2cn1 ; log10(microsomal CLint at 1 µM) = 1.18

====

experiment: Apparent permeability of compound in dog RRCK cells measured after 1.5 hrs by LC-MS/MS analysis; settings: MDCK
// label = true (1) if Papp at 1.5 h is not less than 10 ×10⁻⁶ cm/s, otherwise false (0)

Papp at 1.5 h >= 10 ×10⁻⁶ cm/s for CCC(N)(CC)c1ccnc(Nc2cc3cc(N4CCOC4=O)nc(N)c3cn2)c1 ? true (1)

Papp at 1.5 h >= 10 ×10⁻⁶ cm/s for Cn1nncc1-c1cc2cc(Nc3nn(C)c4c3[C@@H]3CC[C@H]4N(C4CCC4)C3)ncc2c(N)n1 ? false (0)

Papp at 1.5 h >= 10 ×10⁻⁶ cm/s for CCn1nc(Nc2cc3cc(-c4cnnn4C)nc(N)c3cn2)c2c1[C@@H]1CC[C@H]2C(=O)N1C1CCC1 ? false (0)

Papp at 1.5 h >= 10 ×10⁻⁶ cm/s for Cc1cn(C)nc1Nc1cc2cc(C3CCc4nccn43)nc(N)c2cn1 (stereo not given) ? true (1)

Papp at 1.5 h >= 10 ×10⁻⁶ cm/s for Cn1nncc1-c1cc2cc(Nc3cc(C(C)(C)N)ccn3)ncc2c(N)n1 ? false (0)

Papp at 1.5 h >= 10 ×10⁻⁶ cm/s for Cn1nncc1-c1cc2cc(Nc3cc(C(C)(C)O)ccn3)ncc2c(N)n1 ? true (1)

Papp at 1.5 h >= 10 ×10⁻⁶ cm/s for CC[C@](C)(N)c1ccnc(Nc2cc3cc(-c4cnnn4C)nc(N)c3cn2)c1 ? false (0)

Papp at 1.5 h >= 10 ×10⁻⁶ cm/s for CCC(N)(CC)c1ccnc(Nc2cc3cc(-c4cnnn4C)nc(N)c3cn2)c1 ? true (1)

Papp at 1.5 h >= 10 ×10⁻⁶ cm/s for CC[C@@](C)(N)c1ccnc(Nc2cc3cc(-c4cnnn4C)nc(N)c3cn2)c1 ? false (0)

Papp at 1.5 h >= 10 ×10⁻⁶ cm/s for Cc1cn(C)nc1Nc1cc2cc(-c3cn[nH]c3C)nc(N)c2cn1 ? true (1)
